- Tgt: PIKfyve (Homo sapiens, UniProt Q9Y2I7)
- Construct: endogenous in cells; host or cells: VCaP
- Sequence (Q9Y2I7 whole entry): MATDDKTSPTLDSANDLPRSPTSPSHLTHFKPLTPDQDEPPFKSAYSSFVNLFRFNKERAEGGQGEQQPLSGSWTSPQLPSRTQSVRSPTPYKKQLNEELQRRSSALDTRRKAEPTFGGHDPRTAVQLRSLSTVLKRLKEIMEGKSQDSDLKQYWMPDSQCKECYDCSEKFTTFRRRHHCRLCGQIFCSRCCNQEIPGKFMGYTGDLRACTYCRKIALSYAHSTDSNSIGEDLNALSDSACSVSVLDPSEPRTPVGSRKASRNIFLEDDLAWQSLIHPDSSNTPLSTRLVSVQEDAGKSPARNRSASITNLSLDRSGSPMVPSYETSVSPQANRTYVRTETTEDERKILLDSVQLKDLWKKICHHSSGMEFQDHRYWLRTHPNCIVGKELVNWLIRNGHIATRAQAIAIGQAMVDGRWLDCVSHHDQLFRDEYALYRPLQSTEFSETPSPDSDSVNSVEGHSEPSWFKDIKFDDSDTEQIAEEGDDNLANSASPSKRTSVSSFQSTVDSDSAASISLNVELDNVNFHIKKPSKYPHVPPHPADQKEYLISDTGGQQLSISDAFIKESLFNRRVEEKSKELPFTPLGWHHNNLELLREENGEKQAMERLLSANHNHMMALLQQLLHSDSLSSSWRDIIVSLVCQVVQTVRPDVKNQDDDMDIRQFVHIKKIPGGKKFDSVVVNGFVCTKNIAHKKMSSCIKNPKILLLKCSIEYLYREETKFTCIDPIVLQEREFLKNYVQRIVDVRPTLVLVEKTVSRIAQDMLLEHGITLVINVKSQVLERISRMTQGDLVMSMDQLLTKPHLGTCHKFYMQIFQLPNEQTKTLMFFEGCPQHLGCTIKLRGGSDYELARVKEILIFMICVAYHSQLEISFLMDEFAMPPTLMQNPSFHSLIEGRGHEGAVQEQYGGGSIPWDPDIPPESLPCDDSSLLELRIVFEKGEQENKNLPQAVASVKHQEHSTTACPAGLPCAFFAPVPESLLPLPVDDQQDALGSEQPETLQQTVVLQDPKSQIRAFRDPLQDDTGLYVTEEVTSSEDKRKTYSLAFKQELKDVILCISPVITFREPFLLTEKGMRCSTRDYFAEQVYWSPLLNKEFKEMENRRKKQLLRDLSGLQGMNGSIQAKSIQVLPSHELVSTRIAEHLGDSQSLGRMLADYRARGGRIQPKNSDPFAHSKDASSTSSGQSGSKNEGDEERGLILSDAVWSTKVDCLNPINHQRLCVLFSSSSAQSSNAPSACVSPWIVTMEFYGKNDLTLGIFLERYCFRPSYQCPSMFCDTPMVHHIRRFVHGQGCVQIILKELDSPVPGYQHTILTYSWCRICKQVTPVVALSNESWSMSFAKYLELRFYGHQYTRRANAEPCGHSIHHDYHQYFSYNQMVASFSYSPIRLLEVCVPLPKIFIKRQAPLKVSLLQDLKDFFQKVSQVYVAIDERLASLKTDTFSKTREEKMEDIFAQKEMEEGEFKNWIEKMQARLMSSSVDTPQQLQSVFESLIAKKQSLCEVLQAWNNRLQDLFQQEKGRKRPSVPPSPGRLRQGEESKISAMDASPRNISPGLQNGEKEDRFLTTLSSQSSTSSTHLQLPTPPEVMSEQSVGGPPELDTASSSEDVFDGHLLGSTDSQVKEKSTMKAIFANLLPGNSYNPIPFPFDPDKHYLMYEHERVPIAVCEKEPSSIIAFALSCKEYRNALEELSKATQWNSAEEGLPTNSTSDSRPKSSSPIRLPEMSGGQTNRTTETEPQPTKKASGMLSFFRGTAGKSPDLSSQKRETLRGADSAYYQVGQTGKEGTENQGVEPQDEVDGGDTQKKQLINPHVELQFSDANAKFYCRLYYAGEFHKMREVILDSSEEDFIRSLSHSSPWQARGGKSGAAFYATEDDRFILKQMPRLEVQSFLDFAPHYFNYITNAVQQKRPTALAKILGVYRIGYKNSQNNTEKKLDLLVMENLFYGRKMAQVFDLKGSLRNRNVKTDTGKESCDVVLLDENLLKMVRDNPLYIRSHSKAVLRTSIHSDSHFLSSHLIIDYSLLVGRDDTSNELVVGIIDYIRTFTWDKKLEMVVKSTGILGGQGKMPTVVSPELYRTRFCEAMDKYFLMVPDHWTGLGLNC
- Assay name: Degradation of PIKfyve proteins in VCaP tumor cells (24 h, Western blot)
- Type: cell-based
- Run conditions: 37° C., compared with DMSO control, WB, read-out: DC50 (concentration that achieves 50% degradation activity)
Listed here: items and their measured DC50.

[[record]]
compound = "Cc1cccc(/C=N/Nc2cc(N3CCOCC3)nc(OCCc3ccc(NC(=O)CCCCCCCCCCC(=O)Nc4cccc5c4CN(C4CCC(=O)NC4=O)C5=O)cc3)n2)c1 (stereo not drawn)"
value_type = "DC50"
value_observed = "100 to 10000 nM"

[[record]]
compound = "Cc1cccc(/C=N/Nc2cc(N3CCOCC3)nc(OCCc3ccc(NC(=O)CCCCC(=O)Nc4ccc5c(c4)C(=O)N(C4CCC(=O)NC4=O)C5)cc3)n2)c1 (stereo not drawn)"
value_type = "DC50"
value_observed = "1 to 100 nM"


Q: Indicate its recorded DC50; the compound in question is `Cc1cccc(-c2ccn(-c3cc(N4CCOCC4)nc(OCCc4ccc(C#CC5CCN(C(=O)CCCC[C@H](NC(=O)[C@@H]6C[C@@H](O)CN6C(=O)[C@@H](NC(=O)C6(F)CC6)C(C)(C)C)c6ccc(-c7scnc7C)cc6)CC5)cc4)n3)n2)c1`
A: 1 to 100 nM
